Can you tell me Ki for the items I'm about to list?
- measurement_description: The compound was tested for its binding affinity towards sigma receptor in guinea pig brain membranes.
Answers are plain numbers, in nM.

# annotated cases, reported Ki shown
1) Clc1cccc(N2CCN(CCc3ccccc3)CC2)c1 11
2) Clc1ccc(N2CCN(CCCc3ccccc3)CC2)cc1 2.9
3) FC(F)(F)c1cccc(N2CCN(CCCCc3ccccc3)CC2)c1 5.4

Answer for every listed entry: what is its Ki? The entries follow.
1. COc1ccccc1C1(O)CCNCC1
2. c1ccc(CCCCN2CCN(c3ccccc3)CC2)cc1
3. c1ccc(CCCN2CCN(c3ccc4ccccc4c3)CC2)cc1
4. O=C(c1ccccc1)N1CCNCC1

Return:
1: 14300; 2: 2.6; 3: 2.8; 4: 11400
